Hey, just so you know, these numbers are from PubChem BioAssay AID2060896.

System: 941728-121-R-J1-PDC complex spheroid viability
test-protocol: Anticancer human tumor 941728-121-R-J1-PDC patient-derived lung adenocarcinoma cell line growth inhibition [RAS]
condition-summary: compound 0.3 µM; stronger effect = lower value
Overview of recorded viability, T/C for various molecules

Sample records with viability, T/C:
# molecule, viability, T/C
rows = [
    ("CCn1c(-c2cccnc2C(C)OC)c2c3cc(ccc31)N1CCOC(CC(NC(=O)C(C(C)C)N(C)C(=O)C3(F)CCN(C(=O)C#CC(C)(C)N(C)C)CC3)C(=O)N3CCCC(N3)C(=O)OCC(C)(C)C2)C1 (centres undefined)", "24.9% [middle of 8 runs]"),
    ("CC1(C)CCC(Nc2ncc(C(F)(F)F)c(-c3c[nH]c4c(P(C)(C)=O)c(C#N)ccc34)n2)CN1 (centres undefined)", "53.4% [middle of 4 runs]"),
    ("CCn1c(-c2cc(N3CCN(C)CC3)cnc2C(C)OC)c2c3cc(ccc31)-c1csc(n1)CC(NC(=O)C1CC1C)C(=O)N1CCCC(N1)C(=O)OCC(C)(C)C2 (centres undefined)", "13.4% [middle of 8 runs]"),
]

Now consider a different molecule.
// query Suppose we examine the molecule `CCc1c2c(nc3ccc(O)cc13)-c1cc3c(c(=O)n1C2)COC(=O)[C@]3(O)CC` ; what viability, T/C value has been reported?
// result 50% [middle of 4 runs]

====

Tested on: 941728-121-R-J1-PDC complex spheroid viability
test-protocol: Anticancer human tumor 941728-121-R-J1-PDC cell line growth inhibition [RAS];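 note: spheroids exposed to compounds for 7 days before readout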;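 for viability, T/C: 100% = DMSO vehicle control viability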
condition-summary: second compound 0.3 µM; first compound 0.0316 µM; stronger effect = lower value
measurement-kind: viability, T/C (%)
// note: answer is a bare numeric in %

Reference set, count: 5
# molecule, viability, T/C (%)
measured = [
    ("CC(=O)OC12COC1CC(O)C1(C)C(=O)C(O)C3=C(C)C(OC(=O)C(O)C(NC(=O)OC(C)(C)C)c4ccccc4)CC(O)(C(OC(=O)c4ccccc4)C21)C3(C)C (stereo not drawn) + CCn1c(-c2cccnc2C(C)OC)c2c3cc(ccc31)N1CCOC(CC(NC(=O)C(C(C)C)N(C)C(=O)C3(F)CCN(C(=O)C#CC(C)(C)N(C)C)CC3)C(=O)N3CCCC(N3)C(=O)OCC(C)(C)C2)C1", 16.8),
    ("CC1(O)CCCC1n1c(=O)c(C(F)F)cc2cnc(NC3CCN(S(C)(=O)=O)CC3)nc21 (stereo not drawn) + CCn1c(-c2cc(N3CCN(C)CC3)cnc2C(C)OC)c2c3cc(ccc31)-c1csc(n1)CC(NC(=O)C1CC1C)C(=O)N1CCCC(N1)C(=O)OCC(C)(C)C2", 10.4),
    ("NC1c2ccccc2OC12CCN(c1cnc3c(N4CCCc5ncccc54)n[nH]c3n1)CC2 (stereo not drawn) + CCn1c(-c2cc(N3CCN(C)CC3)cnc2C(C)OC)c2c3cc(ccc31)-c1csc(n1)CC(NC(=O)C1CC1C)C(=O)N1CCCC(N1)C(=O)OCC(C)(C)C2", 11.6),
    ("CC(=O)OC12COC1CC(O)C1(C)C(=O)C(O)C3=C(C)C(OC(=O)C(O)C(NC(=O)OC(C)(C)C)c4ccccc4)CC(O)(C(OC(=O)c4ccccc4)C21)C3(C)C (stereo not drawn) + CCn1c(-c2cc(N3CCN(C)CC3)cnc2C(C)OC)c2c3cc(ccc31)-c1csc(n1)CC(NC(=O)C1CC1C)C(=O)N1CCCC(N1)C(=O)OCC(C)(C)C2", 9.41),
    ("O=C(c1ccc(F)c(F)c1Nc1ccc(I)cc1F)N1CC(O)([C@@H]2CCCCN2)C1 + CCn1c(-c2cc(N3CCN(C)CC3)cnc2C(C)OC)c2c3cc(ccc31)-c1csc(n1)CC(NC(=O)C1CC1C)C(=O)N1CCCC(N1)C(=O)OCC(C)(C)C2", 12.7),
]

// query Param readout = viability, T/C; param system = 941728-121-R-J1-PDC complex spheroid viability; param query = C[C@@H](NC(=O)c1ncnc(N)c1Cl)c1ncc(C(=O)Nc2cc(C(F)(F)F)c(Cl)cn2)s1 + CCn1c(-c2cc(N3CCN(C)CC3)cnc2C(C)OC)c2c3cc(ccc31)-c1csc(n1)CC(NC(=O)C1CC1C)C(=O)N1CCCC(N1)C(=O)OCC(C)(C)C2 ; response: value
// result 13.8

// query Tell me reported viability, T/C for Nc1ccn(C2OC(CO)C(O)C2(F)F)c(=O)n1 (stereo not drawn) + CCn1c(-c2cc(N3CCN(C)CC3)cnc2C(C)OC)c2c3cc(ccc31)-c1csc(n1)CC(NC(=O)C1CC1C)C(=O)N1CCCC(N1)C(=O)OCC(C)(C)C2 , tested with 941728-121-R-J1-PDC complex spheroid viability.
// result 11

// query Hello, I am looking for reported viability, T/C with 941728-121-R-J1-PDC complex spheroid viability for Nc1ccn(C2OC(CO)C(O)C2(F)F)c(=O)n1 (stereo not drawn) + CCn1c(-c2cccnc2C(C)OC)c2c3cc(ccc31)N1CCOC(CC(NC(=O)C(C(C)C)N(C)C(=O)C3(F)CCN(C(=O)C#CC(C)(C)N(C)C)CC3)C(=O)N3CCCC(N3)C(=O)OCC(C)(C)C2)C1 . Could you help?
// result 17.6

====

System: 941728-121-R-J1-PDC complex spheroid viability
test-protocol: Anticancer human tumor 941728-121-R-J1-PDC cell line growth inhibition [RAS];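 note: spheroids exposed to compounds for 7 days before readout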;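 for viability, T/C: 100% = DMSO vehicle control viability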
condition-summary: second compound 0.1 µM; first compound 0.00316 µM; stronger effect = lower value
viability, T/C strictly less than 50% = Criterion met. Otherwise Criterion not met.

// query Dear colleague, could you confirm whether viability, T/C of CCN1CCN(Cc2ccc(Nc3ncc(F)c(-c4cc(F)c5nc(C)n(C(C)C)c5c4)n3)nc2)CC1 + C#Cc1c(F)ccc2cc(O)cc(-c3ncc4c(N5CC6CCC(C5)N6)nc(OCC56CCCN5CC(F)C6)nc4c3F)c12 falls below 50%? Thanks.
// result Criterion not met

// query Would you kindly verify if viability, T/C of C=CC(=O)Nc1cc(Nc2nccc(-c3cn(C)c4ccccc34)n2)c(OC)cc1N(C)CCN(C)C + C#Cc1c(F)ccc2cc(O)cc(-c3ncc4c(N5CC6CCC(C5)N6)nc(OCC56CCCN5CC(F)C6)nc4c3F)c12 is strictly less than 50%?
// result Criterion not met

// query # strict comparison: is reported viability, T/C < 50%? input = C=CC(=O)Nc1cc(Nc2nccc(-c3cn(C)c4ccccc34)n2)c(OC)cc1N(C)CCN(C)C + C=CC(=O)N1CCN(c2nc(OCC3CCCN3C)nc3c(F)c(-c4nc(N)cc(C)c4C(F)(F)F)c(Cl)cc23)C(C)C1
// result Criterion met

// query For this molecule, is viability, T/C lower than 50%? C=CC(=O)N1CCN(c2nc(OCC3CCCN3C)nc3c(F)c(-c4nc(N)cc(C)c4C(F)(F)F)c(Cl)cc23)C(C)C1 (stereo not given) + C#Cc1c(F)ccc2cc(O)cc(-c3ncc4c(N5CC6CCC(C5)N6)nc(OCC56CCCN5CC(F)C6)nc4c3F)c12
// result Criterion met

// query Please let me know if CC(C)n1nc(-c2ccc3oc(N)nc3c2)c2c(N)ncnc21 + C#Cc1c(F)ccc2cc(O)cc(-c3ncc4c(N5CC6CCC(C5)N6)nc(OCC56CCCN5CC(F)C6)nc4c3F)c12 shows viability, T/C below 50%.
// result Criterion met

====

Test system: 941728-121-R-J1-PDC complex spheroid viability
test-protocol: Anticancer human tumor 941728-121-R-J1-PDC cell line growth inhibition [RAS];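 note: spheroids exposed to compounds for 7 days before readout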;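 for viability, T/C: 100% = DMSO vehicle control viability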
condition-summary: second compound 0.0316 µM; first compound 1 µM; stronger effect = lower value
From the text: RAS pathway inhibitors in Combinations in Complex Spheroids A high-throughput screen of multi-cell type tumor spheroids was designed to identify active combinations of RAS pathway inhibitors and targeted small molecules. Complex spheroids include a stromal component modeled by human endothelial cells (HUVEC) and fibroblasts modeled by human mesenchymal stem cells (MSCs). […] Compounds. […] If the clinical Cmax for an agent had not been determined, the highest concentration tested was 10 microM. […]
Parameter: viability, T/C. Scope: all listed entries.
Report only the number, with the unit % understood.

// query Lookup: viability, T/C / 941728-121-R-J1-PDC complex spheroid viability / C[C@@H](NC(=O)c1ncnc(N)c1Cl)c1ncc(C(=O)Nc2cc(C(F)(F)F)c(Cl)cn2)s1 + C=CC(=O)N1CCN(c2nc(OCC3CCCN3C)nc3c(F)c(-c4nc(N)cc(C)c4C(F)(F)F)c(Cl)cc23)C(C)C1
// result 22

====

Test system: 941728-121-R-J1-PDC complex spheroid viability
test-protocol: Anticancer human tumor 941728-121-R-J1-PDC cell line growth inhibition [RAS];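 note: spheroids exposed to compounds for 7 days before readout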
condition-summary: curve of first compound; second compound 1 µM
measurement-kind: IC50

# molecule, IC50
measured = [
    ("CC1(C)CCC(Nc2ncc(C(F)(F)F)c(-c3c[nH]c4c(P(C)(C)=O)c(C#N)ccc34)n2)CN1 (stereo not drawn) + C#Cc1c(F)ccc2cc(O)cc(-c3ncc4c(N5CC6CCC(C5)N6)nc(OCC56CCCN5CC(F)C6)nc4c3F)c12", "< 0.949 nM"),
]

// query Query: IC50; subject: Nc1ccn(C2OC(CO)C(O)C2(F)F)c(=O)n1 (stereo not drawn) + C=CC(=O)N1CCN(c2nc(OCC3CCCN3C)nc3c(F)c(-c4nc(N)cc(C)c4C(F)(F)F)c(Cl)cc23)C(C)C1
// result < 3.16 nM

// query // IC50 lookup, key: Nc1ccn(C2OC(CO)C(O)C2(F)F)c(=O)n1 (stereo not drawn) + C#Cc1c(F)ccc2cc(O)cc(-c3ncc4c(N5CC6CCC(C5)N6)nc(OCC56CCCN5CC(F)C6)nc4c3F)c12
// result < 3.16 nM
